Hello, the source for this data is ChEMBL document CHEMBL3507680, in case you need it.

experiment: Human HepG2 cell viability assay in 384 well format; assay type: toxicity, cell-based; set-up: dose 125 nL, time 70.5 hour; concentration not given beside the values; settings: HepG2 cells, read-out: Inhibition
I'd be grateful if you could share measured cytotoxicity at 70.5 h for these entries.
Answers are plain numbers, in %.

These solved cases illustrate the format of a correct answer.
>>> numeric_readout("Cc1occc1C(=O)NCC1OCCc2cn(C)nc21 (centres undefined)")
-3.82
>>> numeric_readout("c1cnc(N2CCO[C@H]3CN(CC4CC4)C[C@H]32)nc1")
-8.99
>>> numeric_readout("Cc1ccc(C2CSCCN2C(=O)C2=CCCC2)o1 (centres undefined)")
-6.86
>>> numeric_readout("CCOC1COC2(CCN(Cc3ccc(C)cc3)CC2)C1 (centres undefined)")
-11.9
>>> numeric_readout("CCC(C(=O)NCCc1nc(C)cc(C(F)(F)F)n1)n1cccn1 (centres undefined)")
20
>>> numeric_readout("c1ccc(CN2CCc3ncnc(N4CCCC4)c3CC2)nc1")
-4.15
>>> numeric_readout("O=C(COc1coc(CN2CCCC2)cc1=O)Nc1ccc(Cl)c(Cl)c1")
-7.3
>>> numeric_readout("CN(C)c1nc(N)nc(CN2CCCC2c2ccsc2)n1 (centres undefined)")
-7.29

Count: 2. Required value per item: cytotoxicity at 70.5 h.
1. CCCc1n[nH]c(=O)n1[C@@H](CC)c1ccccc1
2. Cc1nn(C)c(C)c1C1CCCN1C(=O)c1ccc(N(C)C)nn1 (centres undefined)

Ans.
1: -10.8; 2: -6.36

Count: 4. Required value per item: cytotoxicity at 70.5 h.
1. Cc1cc(=O)[nH]c(SC(C)C(=O)N2CCCN(C3CCCC3)CC2)n1 (centres undefined)
2. O=C(Nc1cnc2n1CCCC2)c1cccc(OCC(F)(F)F)c1
3. CCOc1ccc(C(=O)NCc2ccnc(N3CCCC3)c2)cn1
4. O=C1CO[C@@H]2CN(Cc3cccs3)C[C@H]2N1Cc1cccnc1

Ans.
[6.46, -6.16, -6.13, -10.9]

Count: 3. Required value per item: cytotoxicity at 70.5 h.
1. O=C1CC(c2ccc(C(=O)O)cc2)c2ncn(-c3cccc(Cl)c3)c2N1 (centres undefined)
2. CN1CCCC(Cc2cncc(Br)c2)CC1 (centres undefined)
3. COCCO[C@H]1CCN(c2ccc(C)nn2)[C@H]1Cc1cnn(C)c1

Ans.
1: -9.82; 2: 0.975; 3: -3.27
